// data source = paper PMC10359491

system.tested: human neutrophil elastase (HNE) (Homo sapiens, UniProt P08246 30-267)
Sequence (P08246 30-267): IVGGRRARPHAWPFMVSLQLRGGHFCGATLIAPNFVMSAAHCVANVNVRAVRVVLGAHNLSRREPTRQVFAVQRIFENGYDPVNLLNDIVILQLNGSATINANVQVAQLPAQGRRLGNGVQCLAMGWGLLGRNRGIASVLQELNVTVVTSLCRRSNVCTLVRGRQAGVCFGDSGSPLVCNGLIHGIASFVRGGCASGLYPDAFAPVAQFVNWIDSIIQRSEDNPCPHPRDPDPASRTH
method: ELISA; HNE immobilized; ELISA: PBS pH 7.4, 5 mM MgCl2, 10 mM KCl, 0.01% Tween 20, 20 min (temperature not stated); inhibition: 50 mM Tris pH 7.5, 150 mM NaCl, 10 mM KCl, 5 mM MgCl2, 0.02% Tween 20, 37 C
assay.context: protein: commercial; label: biotin (ELISA); predicted: 2 G4, 2 hairpin loops (not tested)
pKd: −log10 of the molar value.

{"columns": ["binder", "pKd"],
 "data": [
  ["aptamer E12 (ssDNA) DNA: CATGCTTCCCCAGGGAGATGGGCGTGGGGGTTGGGTATGGTGCTTGAGGGGCCTGGAGGAACATGCGTCGCAAAC", 7.86]
]}
